Origin of values: ChEMBL document CHEMBL5376006

tested on: MOLT-4; experiment: Antiproliferative activity against human MOLT-4 cells assessed as inhibition of cell growth incubated for 72 hrs by CellTiter Glo assay; assay type: functional, cell-based; settings: MOLT-4, 72 h, pooled result: one value given for 6 cell lines, strains, targets or settings
Assay endpoint: pIC50
Give bare numbers, as −log10 of the molar value.

Request: Give its pIC50 value. Item: O=C(/C=C\n1cnc(-c2cc(C(F)(F)F)cc(C(F)(F)F)c2)n1)NNc1cnccn1 [SELINEXOR]
Result: 7.47

* * *

test: Cytotoxicity against HEK293T cells assessed as inhibition of cell growth incubated for 72 hrs by SRB assay; assay type: toxicity, cell-based, HEK-293T; conditions: human
Assay endpoint: IC50 at 72 h (µM)
Give bare numbers, in µM.

# batch: return IC50 at 72 h for each of the 4 molecules below
1. O=C(/C=C\n1cnc(-c2cc(C(F)(F)F)cc(C(F)(F)F)c2)n1)NNc1cnccn1 [SELINEXOR]
2. O=C(O)c1ccc(N2CCN(c3cc(C(F)(F)F)ccc3C(F)(F)F)CC2)c(NC(=O)c2ccc(Br)cc2)c1
3. O=C(O)c1ccc(N2CCN(c3cc(C(F)(F)F)cc(C(F)(F)F)c3)CC2)c(NC(=O)c2ccc(Br)cc2)c1
4. O=C(O)c1ccc(N2CCN(c3cc(C(F)(F)F)ccc3C(F)(F)F)CC2)c(NC(=O)c2ccc(Cl)cc2)c1

Result:
1: 0.73; 2: 40.4; 3: 30.9; 4: 39
